Could you please report measured growth for the items listed next?
Test system: SK-MEL-5 melanoma
Experiment: NCI-60 one-dose screen, 48 h (100 = growth as untreated, 0 = no growth, -100 = all killed)
Conditions: 10 µM unless noted
About 83,000 compounds went through this panel and 20% of them were active in at least one assay; those are over-represented in the sample as a whole.
Numbers only, in %.

Some entries whose results are on file:
[
  {
    "molecular_string": "O=C(CO[N+](=O)[O-])Nc1ccc(C(=O)/C=C/c2ccc(Cl)cc2)cc1",
    "parameter": "growth",
    "reported_result": 54.5
  },
  {
    "molecular_string": "CC/C=C\\C[C@H](O)C/C=C1/C(=O)C=C[C@@H]1C/C=C\\CCCC(=O)OC(C)C",
    "parameter": "growth",
    "reported_result": -94.7
  }
]

Below are 5 compounds. Give each one its growth.
1. O=c1ccc2cc3ccccc3cc2[nH]1
2. COc1cc(NC(N)=NCC(C)(C)COc2ccc(C(F)(F)F)cc2)cnc1C#N
3. O=C(O)c1ccc(=O)[nH]n1
4. Cn1cc(-c2nc(-c3c[nH]c4ccccc34)cs2)c2cccnc21
5. Nc1c(C(=O)Nc2ccccc2)sc2nc3c(cc12)CN(CCc1ccccc1)CC3

Solution:
1: 80.8; 2: 26.9; 3: 110; 4: 21.6; 5: 92.9
